Here, each record is paired with measured protein stability index data.
B1: NP_015628.1 (parent)
chain: EQRNSRWNTVLRAVKAKTHHLEP

Variants of: B1
ASSAY_TEXT: protein stability index of a GFP-peptide fusion (GPS, HEK-293T) (PSI 1-6); higher = more stable;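 further: lentivirally expressed fusion library, cells FACS-sorted into six equal-sized GFP/DsRed ratio bins, PSI computed from sequencing read fractions per bin weighted by bin number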
MEASUREMENT_SETUP: c terminus: native
Kindly provide the number alone.

Sample answers from the record:
- ENTRY_SEQUENCE: "EARNSRWNTVLRAVKAKTHHLEP [Q2A]"
  protein stability index: 2.98
- ENTRY_SEQUENCE: "EQRNSRWNTVLRAVDAKTHHLEP [K15D]"
  protein stability index: 3.21
- ENTRY_SEQUENCE: "EQRNSRGNTVLRAVKAKTHHLEP [W7G]"
  protein stability index: 5.71

# input Quick check: protein stability index of EQRNSRWNTVLRAVKAKTHHVEP [L21V] ?
# output 4.29

# input Quick check: protein stability index of EQRNSRWNTVLRAVKAKTHHLEI [P23I] ?
# output 4.19

# input Quick check: protein stability index of EQRNSRWNTVMRAVKAKTHHLEP [L11M] ?
# output 3.19

# input Quick check: protein stability index of EQRNSVWNTVLRAVKAKTHHLEP [R6V] ?
# output 3.23

# input Quick check: protein stability index of EQRNSRWNTVLRAVKEKTHHLEP [A16E] ?
# output 2.37

# input Quick check: protein stability index of EQRNSRWNTVLRAVKAKTFHLEP [H19F] ?
# output 3.66

# input Quick check: protein stability index of EQRNSRWNTVLRAVKAKWHHLEP [T18W] ?
# output 3.57

# input Quick check: protein stability index of EQRNSRWNTVLRAVKAKGHHLEP [T18G] ?
# output 3.12

# input Quick check: protein stability index of VQRNSRWNTVLRAVKAKTHHLEP [E1V] ?
# output 2.65
